# targetOfAssay: MRSA Pyk (Staphylococcus aureus, UniProt Q6GG09)
# Sequence (Q6GG09 whole entry): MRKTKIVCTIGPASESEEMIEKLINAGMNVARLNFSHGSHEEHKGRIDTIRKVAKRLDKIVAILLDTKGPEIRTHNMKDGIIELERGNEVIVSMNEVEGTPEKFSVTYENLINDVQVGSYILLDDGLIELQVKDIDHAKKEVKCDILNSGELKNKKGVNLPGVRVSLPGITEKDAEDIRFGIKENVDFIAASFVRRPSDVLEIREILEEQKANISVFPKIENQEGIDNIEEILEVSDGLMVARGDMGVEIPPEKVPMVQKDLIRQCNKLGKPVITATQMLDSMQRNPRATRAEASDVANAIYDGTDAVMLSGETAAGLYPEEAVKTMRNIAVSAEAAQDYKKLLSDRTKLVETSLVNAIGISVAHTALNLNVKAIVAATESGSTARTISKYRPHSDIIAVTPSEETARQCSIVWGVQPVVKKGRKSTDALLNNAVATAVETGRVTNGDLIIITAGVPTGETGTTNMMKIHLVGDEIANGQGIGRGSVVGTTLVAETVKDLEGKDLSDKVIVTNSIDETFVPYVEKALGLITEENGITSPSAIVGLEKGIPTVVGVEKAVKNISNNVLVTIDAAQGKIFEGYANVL
# assayProcedure: MRSA pyruvate kinase (PK) activity, continuous LDH-coupled assay
measuredAttribute: IC50

Reference set, count: 4
- smilesEntry: "O=C(NCCC1CCOCC1)c1c(/C=C/c2ccc(Cl)cc2)[nH]c2cc(Br)ccc12"
  IC50: "100 to 1000 nM"
- smilesEntry: "Cc1nc2c(cc1-c1ccc(Cl)cc1)[nH]c1cc(Br)ccc12"
  IC50: "< 100 nM"
- smilesEntry: "CN(C)CCOc1cc2[nH]c(-c3cc4ccc(Br)cc4[nH]3)cc2cc1Cl"
  IC50: "< 100 nM"
- smilesEntry: "CC(=O)OCC(=O)Nc1c(CCc2ccc(Cl)cc2)[nH]c2cc(Br)ccc12"
  IC50: "> 1000 nM"

The recorded IC50 for `O=C(NCCCO)c1c(-c2cc3cc(Cl)ccc3[nH]2)[nH]c2cc(Br)ccc12` is < 100 nM

The recorded IC50 for `CN(C)CCNC(=O)c1c(C(=O)Nc2ccc(Cl)cc2)[nH]c2cc(Br)ccc12` is < 100 nM

The recorded IC50 for `O=C(CCCC(=O)c1c(-c2cc3cc(Cl)ccc3[nH]2)[nH]c2cc(Br)ccc12)NCCO` is < 100 nM

The recorded IC50 for `CC(C)(C)OC(=O)COc1cc2[nH]c(-c3cc4ccc(Br)cc4[nH]3)cc2cc1Cl` is < 100 nM
